# measurementDescription: human hepatoma cell viability loss – ATP luminescence, cytotoxicity control for P. falciparum antimalarial project, primary screen (AID 2303);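 note: 0% = DMSO wells and 100% = digitonin-killed cells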
# cond: HepG2 viability, 24-48 h, at 10 µM, stronger effect = higher value
For each of the molecules below, state its inhibition.
One number for each entry, in %.

Take a look at these entries with their results.
molecule: N#Cc1ccc(-c2ccc(C(=O)NC3CCN(CCN4CCC(c5cn(CCOC6CCCCO6)c6ccccc56)CC4)CC3)cc2)cc1 (stereo not drawn)
property: inhibition
measureUnit: %
measuredValue: 48

molecule: COc1ccc2ncc(C#N)c(CCN3CCC(NCc4cnc5c(c4)OCCO5)CC3)c2n1
property: inhibition
measureUnit: %
measuredValue: 3

molecule: CC(=O)Nc1ccc(CCNC(C)Cc2ccc(C(=O)Nc3ccc(CC(C)NCCc4cccc(Cl)c4)cc3)cc2)cc1 (stereo not drawn)
property: inhibition
measureUnit: %
measuredValue: 50

Look at each molecule and report its inhibition.
1. CCCC1(NC[C@@H](O)[C@H](Cc2ccccc2)NC(=O)c2cc(NCC)cc(N3CCCCS3(=O)=O)c2)CCCC1
2. CCc1ccc(CNCC(CCNc2cc(=O)c3ccccc3[nH]2)NCc2cc(Br)cc(Br)c2)o1 (stereo not drawn)
3. CCC(C)Oc1ccc2nc(N)nc(N)c2c1Cl (stereo not drawn)
4. CC(C)(C)c1ccc(CNC(=O)c2ccc(-c3nc4ccc(C(C)(C)C)cc4[nH]3)cc2)cc1
5. CS(=O)(=O)c1ccc(CNCc2ccc(-c3ccc(-c4nc5ccc(C(F)(F)F)cc5[nH]4)s3)cc2)cc1
6. CC(C)C[C@@H](NC(=O)NC1CCC(CCN2[C@@H]3CC[C@H]2CC(OC(=O)C(CO)c2ccccc2)C3)CC1)C(O)(c1ccccc1)c1ccccc1 (stereo partly drawn)
7. Cc1cccc2[nH]c(-c3cccc(-c4cccc(NC(=O)NCc5cccc(F)c5)c4)c3)nc12
8. O=S(=O)(Nc1ccc2nccc(N3CCNCC3)c2c1)c1ccc2c(Cl)cccc2c1

Output:
-1
-11
57
21
49
21
11
11

Look at each molecule and report its inhibition.
1. CN(C)CCOc1cccc(-c2cnc(N)c(-c3nc4ccc(S(C)(=O)=O)cc4[nH]3)c2)c1
2. CCCC(CNCc1cccc(C)c1)CNc1cc(=O)c2ccccc2[nH]1 (stereo not drawn)
3. COc1ccc(NC(=O)C=Cc2ccc(Oc3ccccc3Cl)c([N+](=O)[O-])c2)cc1OCCN(C(C)C)C(C)C
4. CC[C@H](C)CNC(=O)c1cncc(-c2cccc(CN(C)C3CCN(C)CC3)c2)c1
5. CCNc1cc(C(=O)N[C@@H](Cc2ccccc2)[C@H](O)CNC2CCC(C)(C)C2)cc(N2CCCCS2(=O)=O)c1 (stereo partly drawn)
6. CCCCOc1ccc(-c2nc3ccccc3[nH]2)cc1
7. CCCNCc1ccc(-c2ccc(CN(CCOC)C(=O)Cc3cccnc3)cc2)nc1

Output:
39
-2
31
9
3
21
10
